Reference source for all entries: patent US20260061084A1

Tested on: HT-1080.hFAP tumor-bearing mice
experiment summary: Biodistribution studies in xenografted mice
Format: in vivo
condition set: 4 hours p.i., i.v.
Would you kindly list Biodistribution: Heart for each of these molecules?
Please respond with the number in % I.A./g and leave the unit unwritten.

Query block: Any idea what Biodistribution: Heart was measured for CN(CCCN1CCN(C(=O)CCC(C(=O)O)N2CCN(CC(=O)[O-])CCN(CC(=O)[O-])CC2)CC1)c1ccc2nccc(C(=O)NCC(=O)N3CC(F)(F)CC3C#N)c2c1.[61Cu+2] (centres unmarked) [[^61Cu]Cu-NODAGA-FAPI-46, reference compound] ?
Result block: 0.7

Query block: Requested read-out: Biodistribution: Heart. Entry: N#CC1CC(F)(F)CN1C(=O)CNC(=O)c1ccnc2ccc(NC(=O)CCC(=O)N3CCN(C(=O)CCC(C(=O)O)N4CCN(CC(=O)[O-])CCN(CC(=O)[O-])CC4)CC3)cc12.[61Cu+2] (centres unmarked) [[^61Cu]Cu-NODAGA-3]
Result block: 0.5

Query block: Tell me the measured Biodistribution: Heart of N#CC1CC(F)(F)CN1C(=O)CNC(=O)c1ccnc2ccc(NC(=O)CCC(=O)NCCNC(=O)CCC(C(=O)O)N3CCN(CC(=O)[O-])CCN(CC(=O)[O-])CC3)cc12.[61Cu+2] (centres unmarked) [[^61Cu]Cu-NODAGA-1] , please.
Result block: 0.7

Query block: Item CN(C(=O)CCC(=O)NCCNC(=O)CCC(C(=O)O)N1CCN(CC(=O)[O-])CCN(CC(=O)[O-])CC1)c1ccc2nccc(C(=O)NCC(=O)N3CC(F)(F)CC3C#N)c2c1.[61Cu+2] (centres unmarked) [[^61Cu]Cu-NODAGA-2] has what recorded Biodistribution: Heart?
Result block: 0.3

Query block: For the molecule shown here, CN(C(=O)CCC(=O)N1CCN(C(=O)CCC(C(=O)O)N2CCN(CC(=O)[O-])CCN(CC(=O)[O-])CC2)CC1)c1ccc2nccc(C(=O)NCC(=O)N3CC(F)(F)CC3C#N)c2c1.[61Cu+2] (centres unmarked) [[^61Cu]Cu-NODAGA-4] , give the reported Biodistribution: Heart.
Result block: 0.2

###

Test system: HT-1080.hFAP tumor-bearing mice
experiment summary: Biodistribution studies in xenografted mice
Type: in vivo
condition set: FAP-negative tumor, 4 hours p.i., i.v.
Could you please report measured Biodistribution: HT-1080.wt for the items listed next?
Expressed in % I.A./g, but write only the number.

Query block: I have this molecule here, CN(CCCN1CCN(C(=O)CCC(C(=O)O)N2CCN(CC(=O)[O-])CCN(CC(=O)[O-])CC2)CC1)c1ccc2nccc(C(=O)NCC(=O)N3CC(F)(F)CC3C#N)c2c1.[61Cu+2] (centres unmarked) [[^61Cu]Cu-NODAGA-FAPI-46, reference compound] , and I need its recorded Biodistribution: HT-1080.wt.
Result block: 2.5

Query block: Bench note: what Biodistribution: HT-1080.wt did CN(C(=O)CCC(=O)N1CCN(C(=O)CCC(C(=O)O)N2CCN(CC(=O)[O-])CCN(CC(=O)[O-])CC2)CC1)c1ccc2nccc(C(=O)NCC(=O)N3CC(F)(F)CC3C#N)c2c1.[61Cu+2] (centres unmarked) [[^61Cu]Cu-NODAGA-4] show?
Result block: 0.6

Query block: Entry N#CC1CC(F)(F)CN1C(=O)CNC(=O)c1ccnc2ccc(NC(=O)CCC(=O)NCCNC(=O)CCC(C(=O)O)N3CCN(CC(=O)[O-])CCN(CC(=O)[O-])CC3)cc12.[61Cu+2] (centres unmarked) [[^61Cu]Cu-NODAGA-1] : reported Biodistribution: HT-1080.wt = ?
Result block: 2.1

Query block: Name the recorded Biodistribution: HT-1080.wt for N#CC1CC(F)(F)CN1C(=O)CNC(=O)c1ccnc2ccc(NC(=O)CCC(=O)N3CCN(C(=O)CCC(C(=O)O)N4CCN(CC(=O)[O-])CCN(CC(=O)[O-])CC4)CC3)cc12.[61Cu+2] (centres unmarked) [[^61Cu]Cu-NODAGA-3] .
Result block: 1.8

Query block: Please report the recorded Biodistribution: HT-1080.wt for CN(C(=O)CCC(=O)NCCNC(=O)CCC(C(=O)O)N1CCN(CC(=O)[O-])CCN(CC(=O)[O-])CC1)c1ccc2nccc(C(=O)NCC(=O)N3CC(F)(F)CC3C#N)c2c1.[61Cu+2] (centres unmarked) [[^61Cu]Cu-NODAGA-2] .
Result block: 0.9

###

Tested on: HT-1080.hFAP tumor-bearing mice
experiment summary: Biodistribution studies in xenografted mice
Type: in vivo
condition set: FAP-positive tumor, 4 hours p.i., i.v.
I would appreciate it if you labelled entries 1.0 when Biodistribution: HT-1080.hFAP is 6 % I.A./g or higher, otherwise 0.0.

Query block: # check: Biodistribution: HT-1080.hFAP of N#CC1CC(F)(F)CN1C(=O)CNC(=O)c1ccnc2ccc(NC(=O)CCC(=O)NCCNC(=O)CCC(C(=O)O)N3CCN(CC(=O)[O-])CCN(CC(=O)[O-])CC3)cc12.[61Cu+2] (centres unmarked) [[^61Cu]Cu-NODAGA-1] is greater than or equal to 6 % I.A./g
Result block: 1.0

Query block: API: above_or_equal(metric=Biodistribution: HT-1080.hFAP, cutoff=6 % I.A./g) for item N#CC1CC(F)(F)CN1C(=O)CNC(=O)c1ccnc2ccc(NC(=O)CCC(=O)N3CCN(C(=O)CCC(C(=O)O)N4CCN(CC(=O)[O-])CCN(CC(=O)[O-])CC4)CC3)cc12.[61Cu+2] (centres unmarked) [[^61Cu]Cu-NODAGA-3]
Result block: 1.0

Query block: Reported Biodistribution: HT-1080.hFAP reaches at least 6 % I.A./g for CN(C(=O)CCC(=O)NCCNC(=O)CCC(C(=O)O)N1CCN(CC(=O)[O-])CCN(CC(=O)[O-])CC1)c1ccc2nccc(C(=O)NCC(=O)N3CC(F)(F)CC3C#N)c2c1.[61Cu+2] (centres unmarked) [[^61Cu]Cu-NODAGA-2] ?
Result block: 0.0

Query block: # check: Biodistribution: HT-1080.hFAP of CN(CCCN1CCN(C(=O)CCC(C(=O)O)N2CCN(CC(=O)[O-])CCN(CC(=O)[O-])CC2)CC1)c1ccc2nccc(C(=O)NCC(=O)N3CC(F)(F)CC3C#N)c2c1.[61Cu+2] (centres unmarked) [[^61Cu]Cu-NODAGA-FAPI-46, reference compound] is greater than or equal to 6 % I.A./g
Result block: 1.0

Query block: Test whether the compound CN(C(=O)CCC(=O)N1CCN(C(=O)CCC(C(=O)O)N2CCN(CC(=O)[O-])CCN(CC(=O)[O-])CC2)CC1)c1ccc2nccc(C(=O)NCC(=O)N3CC(F)(F)CC3C#N)c2c1.[61Cu+2] (centres unmarked) [[^61Cu]Cu-NODAGA-4] records Biodistribution: HT-1080.hFAP of 6 % I.A./g or higher.
Result block: 0.0

###

Tested on: HT-1080.hFAP tumor-bearing mice
experiment summary: Biodistribution studies in xenografted mice
Type: in vivo
condition set: FAP-negative tumor, 1 hour p.i., i.v.
experimental endpoint: Biodistribution: HT-1080.wt (% I.A./g)
Numbers only here, please. The scale is % I.A./g.

Query block: Could you tell me which Biodistribution: HT-1080.wt is on file for N#CC1CC(F)(F)CN1C(=O)CNC(=O)c1ccnc2ccc(NC(=O)CCC(=O)N3CCN(C(=O)CCC(C(=O)O)N4CCN(CC(=O)[O-])CCN(CC(=O)[O-])CC4)CC3)cc12.[61Cu+2] (centres unmarked) [[^61Cu]Cu-NODAGA-3] ?
Result block: 4.0

Query block: For the compound N#CC1CC(F)(F)CN1C(=O)CNC(=O)c1ccnc2ccc(NC(=O)CCC(=O)NCCNC(=O)CCC(C(=O)O)N3CCN(CC(=O)[O-])CCN(CC(=O)[O-])CC3)cc12.[61Cu+2] (centres unmarked) [[^61Cu]Cu-NODAGA-1] , what Biodistribution: HT-1080.wt is on record?
Result block: 4.5

Query block: Find the recorded Biodistribution: HT-1080.wt belonging to CN(C(=O)CCC(=O)NCCNC(=O)CCC(C(=O)O)N1CCN(CC(=O)[O-])CCN(CC(=O)[O-])CC1)c1ccc2nccc(C(=O)NCC(=O)N3CC(F)(F)CC3C#N)c2c1.[61Cu+2] (centres unmarked) [[^61Cu]Cu-NODAGA-2] and report it.
Result block: 1.4

Query block: May I ask what Biodistribution: HT-1080.wt has been recorded for CN(CCCN1CCN(C(=O)CCC(C(=O)O)N2CCN(CC(=O)[O-])CCN(CC(=O)[O-])CC2)CC1)c1ccc2nccc(C(=O)NCC(=O)N3CC(F)(F)CC3C#N)c2c1.[61Cu+2] (centres unmarked) [[^61Cu]Cu-NODAGA-FAPI-46, reference compound] ?
Result block: 3.1

Query block: Requested field: Biodistribution: HT-1080.wt. Item: CN(C(=O)CCC(=O)N1CCN(C(=O)CCC(C(=O)O)N2CCN(CC(=O)[O-])CCN(CC(=O)[O-])CC2)CC1)c1ccc2nccc(C(=O)NCC(=O)N3CC(F)(F)CC3C#N)c2c1.[61Cu+2] (centres unmarked) [[^61Cu]Cu-NODAGA-4]
Result block: 1.7
